Ref: patent US20240059757A1

Molecular target: SARS-CoV Spike protein (SARS-CoV, UniProt P59594 14-1255)
Assay: cell-based or functional assay
Can you tell me neutralization IC50 for the items I'm about to list?
Give just the number in µg/mL; leave the unit off.

Measured neutralization IC50 of S2X259 variant antibody, VH SEQ ID NO 408 / VL SEQ ID NO 444 (antibody, V domains shown) VH: QVQLVQSGAEVKKPGSSVKVSCKASGGIFNTYTISWVRQAPGQGLEWMGRIILMSGMANYAQKIQGRVTITADKSTSTAYMELTSLRSDDTAVYYCARGFNGNYYGWGDDDAFDISGQGTLVTVYS VL: QTVLTQPPSVSGAPGQRVTISCTGSNSNIGAGYDVHWYQQLPGTAPKLLIYGNSNRPSGVPDRFSGSKSGTSASLAITGLQAEDEADYYCQSYDSSLSGPNWVFGGGTKLTVL : 0.0811

Measured neutralization IC50 of S2X259 variant antibody, VH SEQ ID NO 408 / VL SEQ ID NO 445 (antibody, V domains shown) VH: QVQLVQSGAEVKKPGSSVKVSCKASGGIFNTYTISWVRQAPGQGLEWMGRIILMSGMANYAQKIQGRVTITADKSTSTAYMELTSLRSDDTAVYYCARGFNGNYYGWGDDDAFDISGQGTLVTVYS VL: QTVLTQPPSVSGAPGQRVTISCTGSNSNIGAGYDVHWYQQLPGTAPKLLIVGNSNRPSGVPDRFSGSKSGTSASLAITGLQAEDEADYYCQSYDSSLSGPNWVFGGGTKLTVL : 0.036

Measured neutralization IC50 of S2X259 variant antibody, VH SEQ ID NO 408 / VL SEQ ID NO 443 (antibody, V domains shown) VH: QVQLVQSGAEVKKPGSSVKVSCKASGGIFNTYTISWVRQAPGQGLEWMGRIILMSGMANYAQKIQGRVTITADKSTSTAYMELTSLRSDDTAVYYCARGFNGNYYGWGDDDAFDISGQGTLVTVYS VL: QTVLTQPPSVSGAPGQRVTISCTGSNSNIGAGYDVHWYQQLPGTAPKLLIAGNSNRPSGVPDRFSGSKSGTSASLAITGLQAEDEADYYCQSYDSSLSGPNWVFGGGTKLTVL : 0.0353

Measured neutralization IC50 of S2X259 variant antibody, VH SEQ ID NO 408 / VL SEQ ID NO 442 (antibody, V domains shown) VH: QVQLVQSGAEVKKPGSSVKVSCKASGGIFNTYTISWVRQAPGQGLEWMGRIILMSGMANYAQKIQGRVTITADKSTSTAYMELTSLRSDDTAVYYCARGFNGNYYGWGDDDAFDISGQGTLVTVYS VL: QTVLTQPPSVSGAPGQRVTISCTGSNSNIGAGYDVHWYQQLPGTAPKLLISGNSNRPSGVPDRFSGSKSGTSASLAITGLQAEDEADYYCQSYDSSLSGPNWVFGGGTKLTVL : 0.0531
